Tested on: KRAS PDC tumor spheroids (HUVEC+MSC), viability
experiment.summary: Anticancer human tumor 254851-301-R-J1-PDC patient-derived colon carcinoma cell line growth inhibition [KRAS2]; active = viability on the fitted dose curve at most 10% of control; inactive = the rest
assay.context: second compound 0.0316 µM; first compound 10 µM
Your reply should match one of these outcome classes. TRUE for active, FALSE for inactive

A selection of reference data follows.
Cn1nccc1Nc1nccc(-c2cc3c(s2)C(C)(C)N(CCN2CCOCC2)C3=O)n1 + C=CC(=O)N1CCN(c2nc(OCC3CCCN3C)nc3c2CCN(c2cccc4cccc(C)c24)C3)CC1CC#N: TRUE
O=C(c1cc(Cc2n[nH]c(=O)c3ccccc23)ccc1F)N1CCN(C(=O)C2CC2)CC1 + C=CC(=O)N1CCN(c2nc(OCC3CCCN3C)nc3c2CCN(c2cccc4cccc(C)c24)C3)CC1CC#N: FALSE
COc1cc2nccc(Oc3ccc(NC(=O)C4(C(=O)Nc5ccc(F)cc5)CC4)cc3)c2cc1OC + C=CC(=O)N1CCN(c2nc(OCC3CCCN3C)nc3c2CCN(c2cccc4cccc(C)c24)C3)CC1CC#N: FALSE

Qu. Each compound tested received a call. Report the one for CCNC(=O)CC1N=C(c2ccc(Cl)cc2)c2cc(OC)ccc2-n2c(C)nnc21 (centres undefined) + C=CC(=O)N1CCN(c2nc(OCC3CCCN3C)nc3c2CCN(c2cccc4cccc(C)c24)C3)CC1CC#N .
Ans. FALSE

----------
System: KRAS PDC tumor spheroids (HUVEC+MSC), viability
experiment.summary: Anticancer human tumor 254851-301-R-J1-PDC cell line growth inhibition [KRAS2];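 also: spheroids exposed to compounds for seven days before readout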
assay.context: curve of first compound; second compound 0.316 µM
Please provide measured pIC50 for the entries that follow.
One number for each entry, as −log10 of the molar value.

Would you please look over these solved cases?
Cn1nccc1Nc1nccc(-c2cc3c(s2)C(C)(C)N(CCN2CCOCC2)C3=O)n1 + CNCc1ccccc1-c1csc(C(C)Nc2nc(C)nc3cc(OC)c(OC)cc23)c1: 5.60
CC(C)n1nc(-c2ccc3oc(N)nc3c2)c2c(N)ncnc21 + COc1cc2nc(C)nc(NC(C)c3cc(N)cc(C(F)(F)F)c3)c2cc1OC1CCOC1: 7.68

Pending molecule:
Qu. Give pIC50 (KRAS PDC tumor spheroids (HUVEC+MSC), viability) of the following molecule: CC1COCCN1c1cc(-c2ccnn2C)c2ccnc(-c3ccn[nH]3)c2n1 (stereo not given) + CNCc1ccccc1-c1csc(C(C)Nc2nc(C)nc3cc(OC)c(OC)cc23)c1
Ans. 6.66

----------
System: KRAS PDC tumor spheroids (HUVEC+MSC), viability
experiment.summary: Anticancer human tumor 254851-301-R-J1-PDC cell line growth inhibition [KRAS2];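 also: spheroids exposed to compounds for seven days before readout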;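 as to viability, T/C: 100% = DMSO vehicle control luminescence of the spheroids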
assay.context: second compound 3.16 µM; first compound 10 µM; stronger effect = lower value
readout.label: viability, T/C (%)
Numbers only, in %.

COC(=O)c1ccc2c(C(=Nc3ccc(N(C)C(=O)CN4CCN(C)CC4)cc3)c3ccccc3)c(O)[nH]c2c1 + C=CC(=O)N1CCN(c2nc(OCC3CCCN3C)nc3c2CCN(c2cccc4cccc(C)c24)C3)CC1CC#N: 0.21
COC(=O)c1ccc2c(C(=Nc3ccc(N(C)C(=O)CN4CCN(C)CC4)cc3)c3ccccc3)c(O)[nH]c2c1 + CC1OCC2(CCN(c3cnc(Sc4ccnc(N)c4Cl)c(N)n3)CC2)C1N: 63
CC1OCC2(CCN(c3cnc(Sc4ccnc(N)c4Cl)c(N)n3)CC2)C1N (stereo unspecified) + CNCc1ccccc1-c1csc(C(C)Nc2nc(C)nc3cc(OC)c(OC)cc23)c1: 25.9
Cn1nccc1Nc1nccc(-c2cc3c(s2)C(C)(C)N(CCN2CCOCC2)C3=O)n1 + COc1cc2nc(C)nc(NC(C)c3cc(N)cc(C(F)(F)F)c3)c2cc1OC1CCOC1: 2.21
CCNC(=O)CC1N=C(c2ccc(Cl)cc2)c2cc(OC)ccc2-n2c(C)nnc21 (stereo unspecified) + CNCc1ccccc1-c1csc(C(C)Nc2nc(C)nc3cc(OC)c(OC)cc23)c1: 31
CC1(C)CCC(CN2CCN(c3ccc(C(=O)NS(=O)(=O)c4ccc(NCC5CCOCC5)c([N+](=O)[O-])c4)c(Oc4cnc5[nH]ccc5c4)c3)CC2)=C(c2ccc(Cl)cc2)C1 + COc1cc2nc(C)nc(NC(C)c3cc(N)cc(C(F)(F)F)c3)c2cc1OC1CCOC1: 29.6

Quick request: viability, T/C for each listed item, please.
1. O=C(c1cc(Cc2n[nH]c(=O)c3ccccc23)ccc1F)N1CCN(C(=O)C2CC2)CC1 + CC1OCC2(CCN(c3cnc(Sc4ccnc(N)c4Cl)c(N)n3)CC2)C1N
2. COc1cc(Nc2ncc3c(n2)-c2ccc(Cl)cc2C(c2c(F)cccc2OC)=NC3)ccc1C(=O)O + CNCc1ccccc1-c1csc(C(C)Nc2nc(C)nc3cc(OC)c(OC)cc23)c1
3. COc1cc2nccc(Oc3ccc(NC(=O)C4(C(=O)Nc5ccc(F)cc5)CC4)cc3)c2cc1OC + C=CC(=O)N1CCN(c2nc(=O)n(-c3c(C)ccnc3C(C)C)c3nc(-c4c(O)cccc4F)c(F)cc23)C(C)C1

Ans.
1: 65.5; 2: 4.66; 3: 72.1

Respectfully, I request viability, T/C for each entry included below.
1. CC1OCC2(CCN(c3cnc(Sc4ccnc(N)c4Cl)c(N)n3)CC2)C1N (stereo unspecified) + C=CC(=O)N1CCN(c2nc(OCC3CCCN3C)nc3c2CCN(c2cccc4cccc(C)c24)C3)CC1CC#N
2. CCNC(=O)CC1N=C(c2ccc(Cl)cc2)c2cc(OC)ccc2-n2c(C)nnc21 (stereo unspecified) + COc1cc2nc(C)nc(NC(C)c3cc(N)cc(C(F)(F)F)c3)c2cc1OC1CCOC1
3. COc1cc(Nc2ncc3c(n2)-c2ccc(Cl)cc2C(c2c(F)cccc2OC)=NC3)ccc1C(=O)O + CC1OCC2(CCN(c3cnc(Sc4ccnc(N)c4Cl)c(N)n3)CC2)C1N
4. COc1cc2nccc(Oc3ccc(NC(=O)C4(C(=O)Nc5ccc(F)cc5)CC4)cc3)c2cc1OC + CNCc1ccccc1-c1csc(C(C)Nc2nc(C)nc3cc(OC)c(OC)cc23)c1
5. COC(=O)c1ccc2c(C(=Nc3ccc(N(C)C(=O)CN4CCN(C)CC4)cc3)c3ccccc3)c(O)[nH]c2c1 + CNCc1ccccc1-c1csc(C(C)Nc2nc(C)nc3cc(OC)c(OC)cc23)c1

Ans.
1: 58.9; 2: 26.4; 3: 5.89; 4: 0.27; 5: 0.68

I'm hoping you can list viability, T/C for every molecule here, please.
1. CC(C)NCC(C(=O)N1CCN(c2ncnc3c2C(C)CC3O)CC1)c1ccc(Cl)cc1 (stereo unspecified) + C=CC(=O)N1CCN(c2nc(OCC3CCCN3C)nc3c2CCN(c2cccc4cccc(C)c24)C3)CC1CC#N
2. COc1cc(Nc2ncc3c(n2)-c2ccc(Cl)cc2C(c2c(F)cccc2OC)=NC3)ccc1C(=O)O + COc1cc2nc(C)nc(NC(C)c3cc(N)cc(C(F)(F)F)c3)c2cc1OC1CCOC1

Ans.
1: 8.5; 2: 10.9

Hi there! I need viability, T/C for each item below, if you can.
1. CCNC(=O)CC1N=C(c2ccc(Cl)cc2)c2cc(OC)ccc2-n2c(C)nnc21 (stereo unspecified) + C=CC(=O)N1CCN(c2nc(=O)n(-c3c(C)ccnc3C(C)C)c3nc(-c4c(O)cccc4F)c(F)cc23)C(C)C1
2. COc1cc(Nc2ncc3c(n2)-c2ccc(Cl)cc2C(c2c(F)cccc2OC)=NC3)ccc1C(=O)O + C=CC(=O)N1CCN(c2nc(=O)n(-c3c(C)ccnc3C(C)C)c3nc(-c4c(O)cccc4F)c(F)cc23)C(C)C1

Ans.
1. 59.4
2. 13.6

Provide viability, T/C values for the following items, in order.
1. CC(C)NCC(C(=O)N1CCN(c2ncnc3c2C(C)CC3O)CC1)c1ccc(Cl)cc1 (stereo unspecified) + C=CC(=O)N1CCN(c2nc(=O)n(-c3c(C)ccnc3C(C)C)c3nc(-c4c(O)cccc4F)c(F)cc23)C(C)C1
2. COc1cc2nccc(Oc3ccc(NC(=O)C4(C(=O)Nc5ccc(F)cc5)CC4)cc3)c2cc1OC + CC1OCC2(CCN(c3cnc(Sc4ccnc(N)c4Cl)c(N)n3)CC2)C1N
3. CCNC(=O)CC1N=C(c2ccc(Cl)cc2)c2cc(OC)ccc2-n2c(C)nnc21 (stereo unspecified) + C=CC(=O)N1CCN(c2nc(OCC3CCCN3C)nc3c2CCN(c2cccc4cccc(C)c24)C3)CC1CC#N

Ans.
[88.4, 56.5, 23.3]
